Tested on: DAPK3
testConditions: concentration: 1 μM, replicates: in singlicate; n = 1;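 also: KINOMEscan kinase panel screen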
Each record here notes measured %Inh.
Please reply with the bare figure in % and do not write the unit itself.

>>> print(df.to_string())
                                   molecule  result
0  FC(F)(F)c1ccc(-c2nn3ncccc3c2-c2ccnc(Nc3cccc(C(F)(F)F)c3)n2)cc1 [GW828205]       1

Query the reported %Inh for DAPK3; item: Clc1ccc(-c2cc(-c3c[nH]nc3-c3ccccn3)ccn2)cc1 [GW681251]
30

Give DAPK3 %Inh for Cl.c1ccc(Cn2ncc3cc(Nc4ncnc5ccccc45)ccc32)cc1 [GW273749]
4

* * *

Tested on: RPS6KA4(Kin.Dom.1-N-terminal)
testConditions: concentration: 1 μM, replicates: in singlicate; n = 1
# key: entry, value: %Inh
Please respond with the number in % and leave the unit unwritten.

                          compoundstructure  result
0  Cc1ccc(NC(=O)c2cccc(C#N)c2)cc1-c1ccc(C(=O)Nc2ccncc2)cc1       9
1  Fc1cccc(COc2ccc(Nc3ncnc4sc(-c5ccc[nH]5)cc34)cc2Cl)c1      10
2  O=C(CCO)NCCn1ccc2ncnc(Nc3ccc(Oc4cccc(C(F)(F)F)c4)c(Cl)c3)c21      18

Need %Inh of `FC(F)(F)c1ccc(-c2cc(-c3c[nH]nc3-c3ccccn3)ccn2)cc1` , thanks.
14

* * *

Tested on: ERK4
Construct: gene MAPK4
testConditions: concentration: 1 μM, replicates: in singlicate; n = 1
Reported %Inh values are given for each entry in this list.
Use % as the unit, but write only the number.

Solved cases below.
In [3]: df
Out[3]:
                                   compound  reportedproperty  unittext  result
0  Cl.Cn1ccc(-c2cccc(Nc3ccnc4cc(-c5nccs5)ccc34)c2)n1              %Inh         %       9
1  COC(=O)c1c(-c2ccccc2)c2cc(Cl)ccc2c(=O)n1Cc1ccc(S(C)(=O)=O)cc1              %Inh         %       3
2       CC(C)(C)c1ccc(-n2cnc3c(N)ncnc32)cc1              %Inh         %       0

So what's the measured %Inh for this one? `Fc1ccc(-c2ncn(CCCNCc3ccccc3)c2-c2ccncc2)cc1`
14

Would you kindly share the measured %Inh for `Cn1cc(-c2ccc3c(c2)CCN3C(=O)Cc2cccc(C(F)(F)F)c2)c2c(N)ncnc21` ?
7

State the recorded %Inh for this entry: `CCn1c(-c2ccncc2)nc2cnccc21`
3

Requested field: %Inh. Item: `Clc1cc(Nc2ncnc3cc[nH]c23)ccc1OCc1ccccn1`
27

What does the data say about its %Inh? Entry: `Cl.c1ccc(Cn2ccc3cc(Nc4ncnc5ccccc45)ccc32)cc1`
46

* * *

Test system: SYK
testConditions: concentration: 1 μM, replicates: in singlicate; n = 1
Output: class label from %Inh. Mapping: class 1 (below 2%), class 2 (2% to below 20%), class 3 (20% or more)

>>> df
                                   compound  labelvalue
0  Fc1ccc(-c2ncn(CCCNCc3ccccc3)c2-c2ccncc2)cc1     class 3
1  CCCc1ccc(S(=O)(=O)NC2CCN(c3ccnc(Nc4ccc(OC)cc4)n3)C2)cc1 (stereo not drawn)     class 2
2  COc1ccc(NC(=O)Nc2ccc(C)c(-c3ccc(C(=O)Nc4ccncc4)cc3)c2)cc1     class 1

Which of the defined bands does the recorded %Inh of `O=C(Nc1ccccc1)Nc1ccc(Oc2ccc3nccn3n2)cc1` sit within?
class 2

Please classify: `CCc1nc(-c2cccc(N(C)S(=O)(=O)c3ccccc3)c2)c(-c2ccnc(Nc3ccc(N4CCN(C(C)=O)CC4)nc3)n2)s1`
class 1

Class for O=C(Nc1ccccc1F)NC1CCN(c2ccnc(Nc3ccc(F)cc3)n2)C1 (stereo not drawn) ?
class 2

Band for `Nc1nc(-c2cccnc2)c(-c2ccnc3ccccc23)s1` ?
class 3

Entry `O=C(CCO)NCCn1ccc2ncnc(Nc3ccc(Oc4cccc(C(F)(F)F)c4)c(Cl)c3)c21` belongs to which category?
class 2

* * *

System: PIP5K2B
testConditions: concentration: 1 μM, replicates: in singlicate; n = 1
reportedProperty: %Inh (%)
Your answer is read as %, so omit the unit and give the number.

Check out these entries, answers already filled in.
>>> df
                                   compound  result
0  Cn1cc(-c2ccc3c(c2)CCN3C(=O)Cc2cccc(C(F)(F)F)c2)c2c(N)ncnc21 [GSK2606414]       0
1  Fc1cccc(COc2ccc(Nc3ncnc4cc[nH]c34)cc2Cl)c1      16
2  CC(C)(C)OC(=O)NC1CCCN(c2cc(-c3ccc4c(N)n[nH]c4c3)nc(N)n2)C1 (stereo not shown) [GSK2286096]      19

Would you kindly look at the next entry?
// %Inh lookup, key: Cl.Cn1ccc(-c2cccc(Nc3ccnc4cc(-c5nccs5)ccc34)c2)n1 [GW525701]
14

* * *

# %Inh annotations
Test system: RPS6KA4(Kin.Dom.2-C-terminal)
testConditions: concentration: 1 μM, replicates: in singlicate; n = 1
Write the figure, then the unit, nothing else.

>>> df
                                   compound  result
0  Cc1ccc(O)cc1Nc1cc(C(F)(F)F)nc2ccc(-c3ccncc3)cc12 [GW630823]      0%
1  FC(F)(F)c1ccc(-c2nn3ncccc3c2-c2ccnc(Nc3cccc(C(F)(F)F)c3)n2)cc1 [GW828205]      0%
2  O=C(NCCCN1CCCC1=O)c1cnc(NCc2cc(Cl)ccc2Cl)nc1NC1CCNCC1      0%

Using the record for CCn1c(-c2ccncc2)nc2cnccc21 [SB-735216] , report its %Inh.
11%

# lookup: %Inh of Clc1cccc(-c2nc(Nc3ccncc3)c3ccccc3n2)c1 [GW873004]
1%

State the recorded %Inh for this entry: Clc1ccc(-c2cc(-c3c[nH]nc3-c3ccccn3)ccn2)cc1 [GW681251]
0%

Look up %Inh: CNc1nccc(-c2c(-c3ccc(F)cc3)ncn2C2CCN(C)CC2)n1 [SB-222903]
0%

// returns reported %Inh for input COC(=O)c1cccc(NC(=O)NCCNc2ccnc(Nc3ccc(F)cc3)n2)c1 [GSK1379883]
0%

Report %Inh for `Fc1cccc(COc2ccc(Nc3ncnc4cc[nH]c34)cc2Cl)c1` please.
11%

* * *

Test system: DMPK2
Construct: gene CDC42BPG
testConditions: concentration: 1 μM, replicates: in singlicate; n = 1
reportedProperty: %Inh (%)
Please give a number only; it is taken to be in %.

>>> df
                                   compound  assayedsystem  unittext  result
0  CS(=O)(=O)CCNCc1nc(-c2ccc3ncnc(Nc4ccc(OCc5cccc(F)c5)c(Cl)c4)c3c2)cs1.Cl [GW583340]          DMPK2         %       0
1  O=C(NCCCN1CCCC1=O)c1cnc(NCc2cc(Cl)ccc2Cl)nc1NC1CCNCC1          DMPK2         %       0
2  Fc1cccc(COc2ccc(Nc3ncnc4cc[nH]c34)cc2Cl)c1          DMPK2         %      16
3  COC(=O)c1cccc(NC(=O)NCCNc2ccnc(Nc3ccc(F)cc3)n2)c1 [GSK1379883]          DMPK2         %       8

I have this compound here, CSc1ccc(NC2=C(c3ccccc3Cl)C(=O)NC2=O)cc1 [SB-342411] , and I need its recorded %Inh.
0

Can you look up the measured %Inh of Cc1cc(N2CCC(NS(=O)(=O)c3ccc(F)cc3)CC2)nc(Nc2cccc(C#N)c2)n1.O=C(O)C(F)(F)F [GSK1653537] for me?
0

Given the entry Nc1nc(-c2ccccn2)c(-c2ccnc3ccccc23)s1 [GW548057] , report its measured %Inh.
10

Value lookup for %Inh; key = COc1ccc(-c2oc3ncnc(N)c3c2-c2ccc(OC)cc2)cc1 [SB-589132]
2

Which measured %Inh value corresponds to O=C(c1ccc(-c2cc(-c3c[nH]nc3-c3ccccn3)ccn2)cc1)N1CCCC1 [GW792479] ?
0

Quick check: %Inh of Cl.c1ccc(Cn2ncc3cc(Nc4ncnc5ccccc45)ccc32)cc1 [GW273749] ?
61

Consider the compound shown here: NC(=O)c1sc(-n2cnc3ccccc32)cc1OCc1ccccc1F [GSK1024306] What is its recorded %Inh?
0

Need %Inh of `Fc1ccc(-c2ncn(CCCNCc3ccccc3)c2-c2ccncc2)cc1` , thanks.
55

Bench note: what %Inh did CCCc1ccc(S(=O)(=O)NC2CCN(c3ccnc(Nc4ccc(OC)cc4)n3)C2)cc1 (stereo not shown) [GSK1379737] show?
94.7
